Data provenance is patent CN113912709A.

Measured Kd, listed per entry.
biological target: T1, SARS-CoV-2 wild-type RBD protein (SARS-CoV-2, UniProt P0DTC2 319-541); experiment: SPR, Biacore 8K, RBD on CM5 chip, IgG injected, 1:1 model
T1 construct: domain: RBD
Please respond with the number in nM and leave the unit unwritten.

Need Kd of VacW-212 (antibody, V domains shown) VH: EVQLVESGGGLVQPGGSLRLSCAASGFTFSSYWMNWVRQAPGKGLEWVANIKQDESEKYYVDSVKGRFTISRDNAKNSLFLQMNSLRVEDTAVYYCARMEYPYGGIDYWGQGTLVTVSA VL: NFMLTQPHSVSESPGKTVTISCTGSSGSIASNYVQWYQQRPGSAPTTVIYEDNQRPSGVPDRFSGSIDSSSNSASLTISGLKTEDEADYYCQSYDSSNRNWVFGGGTKLTVL , thanks.
0.653

Give its Kd value. Item: VacW-215 (antibody, V domains shown) VH: EVQLVESGGGLIQPGGSLRLSCAASGFTVSSNYMSWVRQAPGKGLEWVSVIYSGGSTYYADSVKGRFTISRDNSKNTLYLQMNSLRAEDTAVYYCARSTWLRGGFDYWGQGTLVTVSS VL: NFMLTQPHSVSESPGKTVTISCTGSSGSIASNYVQWYQQRPGSAPTTVIYEDNQRPSGVPDRFSGSIDSSSNSASLTISGLKTEDEADYYCQSYDSSNHFYVFGTGTKVTVL
0.405

Name the recorded Kd for VacW-209 (antibody, V domains shown) VH: QVQLVESGGGVVQPGRSLRLSCAASGFTFSSIAMHWVRQAPGKGLEWVAVMSFDGSIKYYGDSVKGRFTISRDNSKSTLYLQMNSLRAEDTAVYYCARGVQGYYDRSGYYNLDYNYGMDVWGQGTTVTVSS VL: QSVLTQPPSVSGAPGQRVTISCTGSSSNIGAGYDVHWYQQLPGTAPKLLIYGNSNRPSGVPDRFSGSKSGTSASLAITGLQAEDEADYYCQSYDSSLSGWVFGGGTKLTVL .
0.0113

What measured Kd goes with VacW-201 (antibody, V domains shown) VH: EVQLVESGGGLVQPGGSLRLSCAASGFTFSSYWMNWVRQAPGKGLEWVANIKQDGSEKYYVDSVKGRFTISRDNAKNSLYLQMNSLRAEDTAVYYCARMEYPYGGVDYWGQGTLVTVSS VL: NFMLTQPHSVSESPGKTVTISCTGSSGSIASNYVQWYQQRPGSAPTTVIYEDNQRPSGVPDRFSGSIDSSSNSASLTISGLKTEDEADYYCQSYDSSNRNWVFGGGTKLTVL ?
0.88
